Tested on: SW872 (Other Solid Carcinomas)
Assay: combination Emax (second highest fraction inhibited in the dose matrix, 72 h); higher = more inhibition; extreme values may be limits of the assay
endpoint-name: combination Emax
Enter the number alone.

Query block: Can you share its combination Emax? I mean this compound: C[C@@H](Nc1cc(F)cc(F)c1)c1cc(C(=O)N(C)C)cc2c(=O)cc(N3CCOCC3)oc12 [AZD8186] + CC(=O)c1c(C)c2cnc(Nc3ccc(N4CCNCC4)cn3)nc2n(C2CCCC2)c1=O [Palbociclib] (first compound max 10 µM, 7x7, partner max 10 µM)
Result block: 0.359

Query block: Consider next the compound Cc1cc2ncnn2cc1Nc1ncc2c(n1)n(C1CCOCC1)c(=O)n2C [AZD7648] + C=CCn1c(=O)c2cnc(Nc3ccc(N4CCN(C)CC4)cc3)nc2n1-c1cccc(C(C)(C)O)n1 [AZD1775] (first compound max 10 µM, partner max 1 µM) in the same way.
Result block: 0.384

Query block: Consider next the compound CC1(C)CCC(CN2CCN(c3ccc(C(=O)NS(=O)(=O)c4ccc(NCC5CCOCC5)c([N+](=O)[O-])c4)c(Oc4cnc5[nH]ccc5c4)c3)CC2)=C(c2ccc(Cl)cc2)C1 [Venetoclax] + Cc1cc2ncnn2cc1Nc1ncc2c(n1)n(C1CCOCC1)c(=O)n2C [AZD7648] (first compound max 1 µM, 7x7, partner max 10 µM) in the same way.
Result block: 0.158

Query block: Consider next the compound C=CCn1c(=O)c2cnc(Nc3ccc(N4CCN(C)CC4)cc3)nc2n1-c1cccc(C(C)(C)O)n1 [AZD1775] + Nc1ccn([C@@H]2O[C@H](CO)[C@@H](O)C2(F)F)c(=O)n1 [Gemcitabine] (first compound max 1 µM, partner max 0.3 µM) in the same way.
Result block: 0.825

Query block: Consider next the compound COc1cccc(OCCCN)c1-c1cc(Nc2cnc(C#N)cn2)n[nH]1 [Prexasertib] + CN(C)CCCOc1ccc(-c2ccc3ncc4c(c3c2)n(C2CCOCC2)c(=O)n4C)cn1 [AZD0156] (first compound max 1 µM, 7x7, partner max 1 µM) in the same way.
Result block: 0.863

Query block: Consider next the compound CN(CCO)CC[C@H](CSc1ccccc1)Nc1ccc(S(=O)(=O)NC(=O)c2ccc(N3CCC([C@@H](O)c4ccccc4-c4ccc(Cl)cc4)CC3)cc2)cc1S(=O)(=O)C(F)(F)F [AZD4320] + C1CN(CCC1(C(=O)N[C@@H](CCO)C2=CC=C(C=C2)Cl)N)C3=NC=NC4=C3C=CN4 [Capivasertib] (first compound max 1 µM, 7x7, partner max 3 µM) in the same way.
Result block: 0.166

* * *

System: NCI-H1355 (Lung Adenocarcinoma);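 further: after 72 h of two-drug dosing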
Assay: Bliss excess, mean over the matrix (fraction); higher = more synergy
endpoint-name: Bliss excess
Enter the number alone.

The cases that follow already have their Bliss excess on record.
Query block: Can you share its Bliss excess? I mean this compound: Cc1c2c(nn1C)CSCc1cc(n(C)n1)CSc1cc(c3ccccc3c1)OCCCc1c(C(=O)O)n(C)c3c-2c(Cl)ccc13 [AZD5991] + Nc1ccn([C@@H]2O[C@H](CO)[C@@H](O)C2(F)F)c(=O)n1 [Gemcitabine] (first compound max 1 µM, 7x7, partner max 0.3 µM)
Result block: -0.0333

Query block: Consider next the compound COc1cccc(OCCCN)c1-c1cc(Nc2cnc(C#N)cn2)n[nH]1 [Prexasertib] + C[C@@H]1COCCN1C2=NC(=NC(=C2)C3(CC3)[S@](=N)(=O)C)C4=C5C=CNC5=NC=C4 [AZD6738] (first compound max 1 µM, 7x7, partner max 10 µM) in the same way.
Result block: 0.0276

Query block: Consider next the compound CN(C)CCCOc1ccc(-c2ccc3ncc4c(c3c2)n(C2CCOCC2)c(=O)n4C)cn1 [AZD0156] + C[C@@H]1COCCN1C2=NC(=NC(=C2)C3(CC3)[S@](=N)(=O)C)C4=C5C=CNC5=NC=C4 [AZD6738] (first compound max 1 µM, 7x7, partner max 10 µM) in the same way.
Result block: -0.0234

Query block: Consider next the compound CC1(C)CCC(CN2CCN(c3ccc(C(=O)NS(=O)(=O)c4ccc(NCC5CCOCC5)c([N+](=O)[O-])c4)c(Oc4cnc5[nH]ccc5c4)c3)CC2)=C(c2ccc(Cl)cc2)C1 [Venetoclax] + C1CN(CCC1(C(=O)N[C@@H](CCO)C2=CC=C(C=C2)Cl)N)C3=NC=NC4=C3C=CN4 [Capivasertib] (first compound max 1 µM, 7x7, partner max 3 µM) in the same way.
Result block: -0.0379

Query block: Consider next the compound Cc1c2c(nn1C)CSCc1cc(n(C)n1)CSc1cc(c3ccccc3c1)OCCCc1c(C(=O)O)n(C)c3c-2c(Cl)ccc13 [AZD5991] + CCN(CCO)CCCOc1ccc2c(Nc3cc(CC(=O)Nc4cccc(F)c4)[nH]n3)ncnc2c1 [AZD2811] (first compound max 1 µM, 7x7, partner max 1 µM) in the same way.
Result block: -0.0466

Query block: Consider next the compound COc1cccc(OCCCN)c1-c1cc(Nc2cnc(C#N)cn2)n[nH]1 [Prexasertib] + O=C(c1cc(Cc2n[nH]c(=O)c3ccccc23)ccc1F)N1CCN(C(=O)C2CC2)CC1 [Olaparib] (first compound max 1 µM, 7x7, partner max 10 µM) in the same way.
Result block: -0.0448

Next:
Query block: Can you share its Bliss excess? I mean this compound: COc1nnc2ccc(N3CCC(c4ccc(OCCN5CCN(C)C(=O)[C@H]5C)cc4)CC3)nn12 [AZD5153] + Cc1c2c(nn1C)CSCc1cc(n(C)n1)CSc1cc(c3ccccc3c1)OCCCc1c(C(=O)O)n(C)c3c-2c(Cl)ccc13 [AZD5991] (first compound max 1 µM, 7x7, partner max 1 µM)
Result block: -0.0274
